# tgt: EcSSB R116D-W136D (Escherichia coli, UniProt P0AGE0 1-178, R116D;W136D)
# procedureText: fluorescence polarization; n = 1.8; 20 mM Tris-acetate pH 8, 50 mM K-glutamate, 10 mM Mg-acetate, 25 C; 10 nM labeled oligo, SSB concentrations as tetramers
# details: protein: recombinant; tags: N-terminal His6-TEV, removed; chain copies: 4; label: fluorescein
pKd: −log10 of the molar value.
observable: pKd

Exercise: So what does the record say about pKd for dT79 (ssDNA) DNA: TTTTTTTTTTTTTTTTTTTTTTTTTTTTTTTTTTTTTTTTTTTTTTTTTTTTTTTTTTTTTTTTTTTTTTTTTTTTTTT ?
Solution: > 8.00

Each recorded value in this set is attributed to paper PMC12143593.
